system: MCF-7 cells; assay: MTT cell viability assay; assay type: cell-based; settings: Homo sapiens, MCF7, cell viability data, read-out: IC50 for MTT
value_kind: IC50 (µM)
Just the number in µM, nothing appended.

Previously resolved entries follow.
INSERT INTO assay_data (compound, readout_number) VALUES
  ('O=C1NC(=O)/C(=C/c2ccc(OCC3CCc4ccccc4C3)cc2)S1 (centres unmarked)', 37),
  ('CC(C)=CCOc1c(C)c(C)c2c(c1C)CCC(C)(COc1ccc(/C=C3\SC(=O)NC3=O)cc1Br)O2 (centres unmarked)', 14.5),
  ('CC1(COc2ccc(/C=C3\SC(=O)NC3=O)cc2)CCCCC1', 70),
  ('Cc1c(C)c2c(c(C)c1OC/C=C/c1ccccc1)CCC(C)(COc1ccc(/C=C3\SC(=O)NC3=O)cc1Br)O2 (centres unmarked)', 28.5),
  ('CCOc1cc(/C=C2\SC(=O)NC2=O)ccc1OCC1(C)CCc2c(C)c(OCC=C(C)C)c(C)c(C)c2O1 (centres unmarked)', 13);

q: Form field: reported IC50 of C=CCOc1c(C)c(C)c2c(c1C)CCC(C)(COc1c(C)cc(/C=C3\SC(=O)NC3=O)cc1C)O2 (centres unmarked)
a: 10.5

q: Entry to check: C=CCOc1c(C)c(C)c2c(c1C)CCC(C)(COc1ccc(/C=C3\SC(=O)NC3=O)cc1C)O2 (centres unmarked)
a: 23.5

----------
tested on: cyclin D1; assay: Western blot analysis of cyclin D1 expression in MCF-7 cells; format: cell-based, human; settings: with 40 μM TG or 30 μM Δ2-TG, 24 h
Peptide text beside a SMILES is read from it. * marks the point of attachment. Cbz = O=C(OCc1ccccc1)*
value_kind: effect of co-treatment on TG- and Δ2-TG-induced cyclin D1 ablation

INSERT INTO assay_data (compound, result) VALUES
  ('CC(=O)N[C@@H](CSC(=O)[C@]1([C@@H](O)C(C)C)NC(=O)[C@H](C)[C@@H]1O)C(=O)O [lactacystin, reference compound]', 'effective in rescuing'),
  ('CC(C)C[C@@H](C=O)NC(=O)[C@H](CC(C)C)NC(=O)[C@H](CC(C)C)NC(=O)OCc1ccccc1 [MG132, reference compound] (Cbz-Leu-Leu-Leu-aldehyde)', 'effective in rescuing'),
  ('CC[C@H](C)[C@H](NC(=O)[C@H]([C@@H](C)CC)N(C)C(C)=O)C(=O)N[C@H](C(=O)N[C@@H](CC(C)C)C(=O)[C@@]1(C)CO1)[C@@H](C)O [epoxomicin, reference compound]', 'effective in rescuing');

----------
system: MCF-7 cells; test: MTT cell viability assay; format: cell-based; conditions: Homo sapiens, MCF7, cell viability data, read-out: IC50 for MTT
value_kind: IC50

INSERT INTO measurements (compound, value_kind, result) VALUES
  ('CC(C)=CCOc1c(C)c(C)c2c(c1C)CCC(C)(COc1ccc(/C=C3\SC(=O)NC3=O)cc1-c1ccc(F)cc1)O2 (stereo not drawn) [TG-32]', 'IC50', '19.5 µM'),
  ('C=CCOc1c(C)c(C)c2c(c1C)CCC(C)(COc1ccc(/C=C3\SC(=O)NC3=O)cc1OC)O2 (stereo not drawn) [TG-28]', 'IC50', '14.5 µM'),
  ('CC(C)=CCOc1c(C)c(C)c2c(c1C)CCC(C)(COc1ccc(/C=C3\SC(=O)NC3=O)cc1[N+](=O)[O-])O2 (stereo not drawn) [TG-35]', 'IC50', '38 µM');

Alright, here's another compound for you.
q: Form field: reported IC50 of COc1cc(/C=C2\SC(=O)NC2=O)cc(Br)c1OCC1(C)CCc2c(C)c(OCC=C(C)C)c(C)c(C)c2O1 (stereo not drawn) [TG-44]
a: 14.5 µM

----------
test system: cyclin D1; experiment: Western blot analysis of cyclin D1 expression in MCF-7 cells; assay type: cell-based, human; conditions: 24 h, 5% FBS
Here the recorded minimum concentration required for the complete ablation of cyclin D1 is given for each entry.
Kindly format the answer as number then unit.

Previously resolved entries follow.
INSERT INTO measurements (molecule, result) VALUES
  ('CC1(COc2ccc(/C=C3\SC(=O)NC3=O)cc2)CCCCC1', '30 µM'),
  ('Cc1c(C)c2c(c(C)c1O)CCC(C)(COc1ccc(CC3SC(=O)NC3=O)cc1)O2 (stereo not shown) [TG, troglitazone, reference compound]', '40 µM'),
  ('CC1(COc2ccc(CC3SC(=O)NC3=O)cc2)CCCCC1 (stereo not shown) [CG, ciglitazone, reference compound]', '50 µM');

q: Form field: reported minimum concentration required for the complete ablation of cyclin D1 of Cc1c(C)c2c(c(C)c1O)CCC(C)(COc1ccc(/C=C3\SC(=O)NC3=O)cc1)O2 (stereo not shown)
a: 30 µM

----------
tested on: MCF-7 cells; assay: MTT cell viability assay; type: cell-based; settings: Homo sapiens, MCF7, cell viability data, read-out: IC50 for MTT
Here the recorded IC50 is given for each entry.
Just the number in µM, nothing appended.

Previously resolved entries follow.
INSERT INTO results (compound, measured_target, readout_number) VALUES
  ('CC(C)=CCOc1c(C)c(C)c2c(c1C)CCC(C)(COc1ccc(/C=C3\SC(=S)NC3=O)c3ccccc13)O2 (centres unmarked) [TG-46]', 'MCF-7 cells', 37.3),
  ('COc1cc(/C=C2\SC(=O)NC2=O)ccc1OCC1(C)CCc2c(C)c(OCC=C(C)C)c(C)c(C)c2O1 (centres unmarked) [TG-16]', 'MCF-7 cells', 15),
  ('C=CCOc1c(C)c(C)c2c(c1C)CCC(C)(COc1ccc(/C=C3\SC(=O)NC3=O)cc1Br)O2 (centres unmarked) [TG-27]', 'MCF-7 cells', 28),
  ('Cc1c(C)c2c(c(C)c1OC/C=C/c1ccccc1)CCC(C)(COc1ccc(/C=C3\SC(=O)NC3=O)cc1)O2 (centres unmarked) [TG-10]', 'MCF-7 cells', 19),
  ('C=CCOc1c(C)c(C)c2c(c1C)CCC(C)(COc1c(Br)cc(/C=C3\SC(=O)NC3=O)cc1OC)O2 (centres unmarked) [TG-54]', 'MCF-7 cells', 17.5);

q: Form field: reported IC50 of CC(C)=CCOc1c(C)c(C)c2c(c1C)CCC(C)(COc1c(Br)cc(/C=C3\SC(=O)NC3=O)cc1Br)O2 (centres unmarked) [TG-34]
a: 15.5

q: Entry to check: Cc1c(C)c2c(c(C)c1OCc1ccccc1)CCC(C)(COc1ccc(/C=C3\SC(=O)NC3=O)cc1)O2 (centres unmarked) [TG-12]
a: 16.7

q: Entry to check: CC(C)=CCOc1c(C)c(C)c2c(c1C)CCC(C)(COc1ccc(/C=C/C(=O)O)cc1Br)O2 (centres unmarked) [TG-37]
a: 34

q: Entry to check: C=CCOc1c(C)c(C)c2c(c1C)CCC(C)(COc1ccc(/C=C3\SC(=O)NC3=O)cc1OCC)O2 (centres unmarked) [TG-55]
a: 17

q: Entry to check: C=CCOc1c(C)c(C)c2c(c1C)CCC(C)(COc1ccc(/C=C3\SC(=S)NC3=O)cc1)O2 (centres unmarked) [TG-3]
a: 11

q: Entry to check: C=CCOc1c(C)c(C)c2c(c1C)CCC(C)(COc1cccc(/C=C3\SC(=O)NC3=O)c1)O2 (centres unmarked) [TG-51]
a: 40

q: Entry to check: CC(C)=CCOc1c(C)c(C)c2c(c1C)CCC(C)(COc1ccc(C(O)C(C)(C)C(=O)O)cc1Br)O2 (centres unmarked) [TG-39]
a: 46

q: Entry to check: C=CCOc1c(C)c(C)c2c(c1C)CCC(C)(COc1ccc(/C=C3\SC(=O)NC3=O)cc1)O2 (centres unmarked) [TG-6]
a: 9

q: Entry to check: CC(C)=CCOc1c(C)c(C)c2c(c1C)CCC(C)(COc1ccc(/C=C3\SC(=O)NC3=O)cc1F)O2 (centres unmarked) [TG-30]
a: 12.5

q: Entry to check: Cc1c(C)c2c(c(C)c1O)CCC(C)(COc1ccc(/C=C3\SC(=O)NC3=O)cc1)O2 (centres unmarked) [Δ2-TG]
a: 57

----------
system: MCF-7 cells; assay: MTT cell viability assay; assay type: cell-based; settings: Homo sapiens, MCF7, cell viability data, read-out: IC50 for MTT
value_kind: IC50

Previously resolved entries follow.
INSERT INTO assay_data (molecule, result) VALUES
  ('CC(C)=CCOc1c(C)c(C)c2c(c1C)CCC(C)(COc1ccc(/C=C3\SC(=O)NC3=O)cc1-c1ccc(C(F)(F)F)cc1)O2 (centres unmarked)', '> 50 µM'),
  ('CCOC(=O)C(C)(C)C(O)c1ccc(OCC2(C)CCc3c(C)c(OCC=C(C)C)c(C)c(C)c3O2)c(Br)c1 (centres unmarked)', '> 50 µM'),
  ('CC(C)=CCOc1c(C)c(C)c2c(c1C)CCC(C)(COc1ccc(C=C(C(=O)O)C(=O)O)cc1Br)O2 (centres unmarked)', '> 50 µM'),
  ('CC(C)=CCOc1c(C)c(C)c2c(c1C)CCC(C)(COc1ccc(/C=C3\SC(=O)NC3=O)c3ccccc13)O2 (centres unmarked)', '14.5 µM'),
  ('CCOC(=O)C(=Cc1ccc(OCC2(C)CCc3c(C)c(OCC=C(C)C)c(C)c(C)c3O2)c(Br)c1)C(=O)OCC (centres unmarked)', '> 50 µM');

q: Form field: reported IC50 of CC(C)=CCOc1c(C)c(C)c2c(c1C)CCC(C)(COc1ccc(/C=C3\SC(=O)NC3=O)cc1C)O2 (centres unmarked)
a: 14.5 µM

q: Entry to check: C=CCOc1c(C)c(C)c2c(c1C)CCC(C)(COc1ccc(/C=C3\SC(=O)N(CC(=O)OC)C3=O)cc1)O2 (centres unmarked)
a: > 50 µM

q: Entry to check: CCc1ccc(-c2cc(/C=C3\SC(=O)NC3=O)ccc2OCC2(C)CCc3c(C)c(OCC=C(C)C)c(C)c(C)c3O2)cc1 (centres unmarked)
a: > 50 µM

q: Entry to check: C=CCOc1c(C)c(C)c2c(c1C)CCC(C)(COc1ccc(/C=C3\SC(=O)NC3=O)c3ccccc13)O2 (centres unmarked)
a: 14.5 µM

q: Entry to check: CC(C)=CCOc1c(C)c(C)c2c(c1C)CCC(C)(COc1ccc(/C=C3\SC(=O)NC3=O)cc1)O2 (centres unmarked)
a: 14.5 µM

q: Entry to check: Cc1c(C)c2c(c(C)c1OC(=O)CCC(=O)O)CCC(C)(COc1ccc(/C=C3\SC(=O)NC3=O)cc1)O2 (centres unmarked)
a: > 50 µM
